- Method notes: small-molecule binders of probe aNOTCH2, primary screen, biochemical, small-molecule microarray, 635/667 nm fluorescence (AID 1121);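 also: score merges feature fluorescence read at 667 nm with its signal to noise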
- Measurement context: higher = more signal
Please provide measured composite z-score for the entries that follow.
One number for each entry.

Solved entries (count: 3):
# Molecule, Result number
data = [
    ("O=C1C=C[C@@H](O)[C@@H]2[C@@H]3C(=O)N(c4ccc(F)cc4F)C(=O)[C@@H]3CC[C@@H]12", -0.0772),
    ("O=C1C2=CC[C@H]3C(=O)N(c4cccc(Oc5ccccc5)c4)C(=O)[C@H]3[C@H]2[C@H](O)[C@@H]2O[C@H]12", -0.132),
    ("O=C1[C@H]2[C@H]3[C@H](O)[C@H](O)CC(=NOCc4ccccc4)[C@@H]3CC[C@H]2C(=O)N1C[C@@H]1CCCO1", -0.0621),
]

Answer for every listed entry: what is its composite z-score? The entries follow.
1. CCN1C(=O)[C@H]2[C@H]3[C@H](O)[C@H](O)CC(=NOCC(C)C)[C@@H]3CC[C@H]2C1=O
2. CO[C@@H]1C=CCC(=O)N[C@@H](C)C(=O)OC[C@@H](OC)[C@H](C)CCCC(=O)OC[C@H]1C

Output:
-0.126
-0.208

Answer for every listed entry: what is its composite z-score? The entries follow.
1. C#CCCCON=C1C[C@@H](O)[C@@H](O)[C@@H]2[C@@H]3C(=O)N(c4cccc(Oc5ccccc5)c4)C(=O)[C@@H]3CC[C@H]12
2. CC(C)=CCCC(C)=CCON=C1C[C@@H](O)[C@@H](O)[C@@H]2[C@@H]3C(=O)N(c4ccc(F)cc4F)C(=O)[C@@H]3CC[C@@H]12
3. CO[C@H]1COC(=O)CC=C[C@H](C)COC(=O)[C@@H](C)NC(=O)CC=C[C@@H]1C
4. CCCCC#C[C@@H]1C=C[C@H](Oc2ccc(C(=O)OC)cc2)[C@@H](COC(=O)OCC)O1
5. COC(=O)CC=C[C@@H](C)[C@@H](C=NOC[C@H]1O[C@H](c2ccccc2)C=C[C@@H]1Oc1ccc(OC)cc1)OC
6. Cn1c(=O)n2n(c1=O)[C@H]1[C@H](O)[C@@H]3O[C@@H]3C(=NOCc3ccccc3)[C@H]1CC2

Output:
[-0.14, -0.14, -0.14, -0.0578, -0.131, -0.14]

Answer for every listed entry: what is its composite z-score? The entries follow.
1. O=C1CCCC=C1C(CCc1ccccc1)OC(=O)c1ccc(Br)cc1 (stereo unspecified)
2. CCN1C(=O)[C@@H]2[C@H]3C(=CC[C@@H]2C1=O)C1(OCCCO1)[C@H]1O[C@H]1[C@H]3O

Output:
-0.146
-0.0948

----------
- Target under test: Focal adhesion kinase 1 (Homo sapiens)
- Method notes: small-molecule microarray binders of FAK, primary screen, biochemical, 635/667 nm fluorescence, BSA, DTT (AID 1130);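 also: composite of spot emission at 667 nm and signal to noise over triplicate slides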
- Measurement context: PTK2 binding, 635 nm fluorescence, higher = more signal
Observed property: composite z-score
Answers are plain numbers.

# Compound, Target under test, Observed property, Result number
records = [
    ("COC(=O)CC=C[C@@H](C)[C@@H](C=NO[C@H](C)c1cn([C@H](CO)Cc2ccccc2)nn1)OC", "Focal adhesion kinase 1 (Homo sapiens)", "composite z-score", -0.144),
    ("Cc1ccc(S(=O)(=O)N[C@H]2COC(=O)CC=C[C@H](C)[C@@H](NS(=O)(=O)c3ccc(C)cc3)COC(=O)CC=C[C@@H]2C)cc1", "Focal adhesion kinase 1 (Homo sapiens)", "composite z-score", 0.106),
]

Answer for every listed entry: what is its composite z-score? The entries follow.
1. CC(C)(C)N1C(=O)[C@H]2[C@H]3[C@H](O)C=CC(=O)[C@@H]3CC[C@H]2C1=O
2. C#CCCCON=C1C[C@@H](O)[C@@H](O)[C@@H]2[C@@H]3C(=O)N(CCC(=O)OCC)C(=O)[C@@H]3CC[C@H]12

Output:
[-0.258, -0.0834]

----------
- Method notes: small-molecule microarray binders of probe aDKK1, primary screen, biochemical, biotinylated probe, 635/667 nm fluorescence (AID 1099);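 also: score merges 667nm spot fluorescence with signal to noise across triplicate slides; reference of the scale not given here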
- Measurement context: higher = more signal
Observed property: composite z-score
Answers are plain numbers.

# Molecule, composite z-score
measured = [
    ("COc1cccc([C@H]2Oc3ccc(OC)cc3C(=NO[C@H](C)c3cn([C@H](CO)Cc4ccccc4)nn3)[C@@H]2O)c1", -0.561),
    ("CO[C@H]1COC(=O)CC=C[C@@H](C)[C@H](OC)COC(=O)[C@@H]2CCCN2C(=O)CC=C[C@@H]1C", -0.382),
    ("Cn1c(=O)n2n(c1=O)[C@H]1[C@H](O)[C@@H]3O[C@@H]3C(=O)[C@H]1CC2", -0.0838),
    ("CC(C)=CCCC(C)=CCON=C1C[C@@H](O)[C@@H](O)[C@@H]2[C@@H]3C(=O)N(C(C)(C)C)C(=O)[C@@H]3CC[C@@H]12", 0.0156),
]

Answer for every listed entry: what is its composite z-score? The entries follow.
1. Cc1ccc(S(=O)(=O)n2c3ccccc3c3nnc(C(=O)c4ccccc4)nc32)cc1
2. COC(=O)[C@H](C)NC(=O)CCC1CC(OC(=O)NCc2ccc3c(c2)OCO3)CC2(CCCC(COC(=O)NCCc3ccccc3OC)O2)O1 (some centres not stated)
3. CC(C)=CCCC(C)=CCON=C1C[C@@H](O)[C@@H](O)[C@@H]2[C@@H]3C(=O)N(C[C@@H]4CCCO4)C(=O)[C@@H]3CC[C@H]12

Output:
1. -0.153
2. -0.037
3. -0.257

----------
- Target under test: Epidermal growth factor receptor (Homo sapiens) (UniProt P00533)
- Sequence (P00533 whole entry, looked up): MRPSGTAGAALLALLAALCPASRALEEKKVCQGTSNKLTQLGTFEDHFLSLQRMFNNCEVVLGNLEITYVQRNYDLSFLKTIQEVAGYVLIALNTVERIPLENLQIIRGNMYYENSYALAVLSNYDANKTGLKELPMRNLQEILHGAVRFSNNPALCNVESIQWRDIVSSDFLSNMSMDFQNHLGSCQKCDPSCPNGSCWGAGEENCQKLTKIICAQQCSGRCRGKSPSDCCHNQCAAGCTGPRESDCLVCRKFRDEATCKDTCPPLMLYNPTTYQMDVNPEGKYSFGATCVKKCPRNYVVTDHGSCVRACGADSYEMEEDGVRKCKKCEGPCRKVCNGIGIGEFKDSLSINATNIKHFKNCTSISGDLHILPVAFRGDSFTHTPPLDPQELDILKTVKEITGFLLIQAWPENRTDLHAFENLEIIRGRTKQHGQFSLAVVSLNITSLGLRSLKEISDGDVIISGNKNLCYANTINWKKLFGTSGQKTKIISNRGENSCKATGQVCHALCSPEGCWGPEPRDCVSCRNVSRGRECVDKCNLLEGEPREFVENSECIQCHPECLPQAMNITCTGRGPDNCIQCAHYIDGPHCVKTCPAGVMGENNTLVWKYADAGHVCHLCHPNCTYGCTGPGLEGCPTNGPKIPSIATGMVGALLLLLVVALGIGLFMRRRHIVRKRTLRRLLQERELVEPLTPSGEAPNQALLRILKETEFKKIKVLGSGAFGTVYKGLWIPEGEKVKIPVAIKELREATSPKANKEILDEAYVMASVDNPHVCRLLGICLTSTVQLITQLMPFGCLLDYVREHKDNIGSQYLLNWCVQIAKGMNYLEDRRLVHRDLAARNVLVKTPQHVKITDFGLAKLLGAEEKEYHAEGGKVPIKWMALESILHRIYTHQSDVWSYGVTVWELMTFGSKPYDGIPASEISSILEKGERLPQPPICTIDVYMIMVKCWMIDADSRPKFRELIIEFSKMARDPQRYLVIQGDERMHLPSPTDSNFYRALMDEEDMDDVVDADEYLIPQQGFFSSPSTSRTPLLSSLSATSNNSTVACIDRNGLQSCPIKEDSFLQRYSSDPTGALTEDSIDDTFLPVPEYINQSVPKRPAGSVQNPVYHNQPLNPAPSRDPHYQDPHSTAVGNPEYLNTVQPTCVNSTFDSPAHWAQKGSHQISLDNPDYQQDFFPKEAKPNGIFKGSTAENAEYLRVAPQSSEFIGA
- Method notes: EGFR binders on small-molecule microarrays, primary screen, biochemical, small-molecule microarray, 635 nm fluorescence (AID 1104);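 also: score merges 667 nm emission intensity with spot signal to noise over triplicate slides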
- Measurement context: EGFR binding, higher = more signal
Label yes when composite z-score >= 0.3; otherwise no.

# Compound, Target under test, Group label
measured = [
    ("CC(C)=CCCC(C)=CCON=C1C[C@@H](O)[C@@H](O)[C@@H]2[C@@H]3C(=O)N(c4cccc(Oc5ccccc5)c4)C(=O)[C@@H]3CC[C@@H]12", "Epidermal growth factor receptor (Homo sapiens) (UniProt P00533)", "no"),
    ("COc1cccc([C@H]2Oc3ccc(OC)cc3C(=NOC[C@@H](O)[C@H]3O[C@@H]4OC(C)(C)O[C@@H]4[C@H]3O)[C@@H]2O)c1", "Epidermal growth factor receptor (Homo sapiens) (UniProt P00533)", "yes"),
    ("CO[C@H]1COC(=O)CC=C[C@H](C)COC(=O)[C@@H](C)NC(=O)CC=C[C@@H]1C", "Epidermal growth factor receptor (Homo sapiens) (UniProt P00533)", "yes"),
    ("CC(CCN1CCCCc2nc(C)c(C)cc21)=NOC[C@@H](O)COCc1ccco1", "Epidermal growth factor receptor (Homo sapiens) (UniProt P00533)", "yes"),
    ("C#CCCCON=C1C[C@@H](O)[C@@H](O)[C@@H]2[C@@H]3C(=O)N(c4cccc(Oc5ccccc5)c4)C(=O)[C@@H]3CC[C@H]12", "Epidermal growth factor receptor (Homo sapiens) (UniProt P00533)", "no"),
    ("COc1ccc(C#C[C@@H]2C=C[C@H](OC(C)=O)[C@@H](COC(C)=O)O2)cc1", "Epidermal growth factor receptor (Homo sapiens) (UniProt P00533)", "yes"),
    ("CCOC(=O)CCN1C(=O)[C@H]2[C@H]3[C@H](O)[C@H](O)CC(=NOCC(C)C)[C@H]3CC[C@H]2C1=O", "Epidermal growth factor receptor (Homo sapiens) (UniProt P00533)", "no"),
    ("C[C@H]1Cc2c(COc3ccccc3)nc3c(c2CO1)CN(CCOc1ccccc1)CC3", "Epidermal growth factor receptor (Homo sapiens) (UniProt P00533)", "yes"),
]

Task: Decide: is the reported value of composite z-score for C[C@@H](c1ccccc1)N1C(=O)[C@H]2[C@H]3[C@H](O)[C@H](O)CC(=O)[C@H]3CC[C@H]2C1=O equal to or greater than 0.3?
Output: no

Task: Decide: is the reported value of composite z-score for CCC(=O)[C@@]1(O)C(=O)N2C(=C3C(=O)OCC[C@@H]31)N(Cc1ccccc1)C(C)=C(C(=O)OC)[C@H]2c1ccccc1 equal to or greater than 0.3?
Output: yes

Task: Decide: is the reported value of composite z-score for COC(=O)CC=C[C@@H](C)[C@@H](C=NOCC[C@@H]1C=C[C@H](OC(C)=O)[C@@H](COC(C)=O)O1)NS(=O)(=O)c1ccc(C)cc1 equal to or greater than 0.3?
Output: yes

Task: Decide: is the reported value of composite z-score for COC(=O)[C@@H]1CC[C@H](C)[C@@H](c2ccc(C)cc2)N1C(=O)c1ccc(C=NO[C@@H]2O[C@H](COC(C)=O)[C@@H](OC(C)=O)[C@H](OC(C)=O)[C@H]2OC(C)=O)cc1 equal to or greater than 0.3?
Output: yes

Task: Decide: is the reported value of composite z-score for CO[C@H]1COC(=O)[C@@H](C)COC(=O)[C@H](C)NC(=O)CC=C[C@H]1C equal to or greater than 0.3?
Output: yes

Task: Decide: is the reported value of composite z-score for COC(=O)[C@H](C)NC(=O)CCC1CC(OC(=O)NCc2ccc3c(c2)OCO3)CC2(CCCC(COC(=O)NCc3cccc(C(F)(F)F)c3)O2)O1 (stereo not given in full) equal to or greater than 0.3?
Output: no

Task: Decide: is the reported value of composite z-score for CCC1=NOC(CCC2CC(OC(=O)NCc3cccc4c3OCO4)CC3(CCCC(COC(=O)NCCc4ccccc4OC)O3)O2)C1 (stereo not given) equal to or greater than 0.3?
Output: no
